# target_or_system: Transitional endoplasmic reticulum ATPase (Homo sapiens) (UniProt P55072)
# Sequence (P55072 whole entry, looked up): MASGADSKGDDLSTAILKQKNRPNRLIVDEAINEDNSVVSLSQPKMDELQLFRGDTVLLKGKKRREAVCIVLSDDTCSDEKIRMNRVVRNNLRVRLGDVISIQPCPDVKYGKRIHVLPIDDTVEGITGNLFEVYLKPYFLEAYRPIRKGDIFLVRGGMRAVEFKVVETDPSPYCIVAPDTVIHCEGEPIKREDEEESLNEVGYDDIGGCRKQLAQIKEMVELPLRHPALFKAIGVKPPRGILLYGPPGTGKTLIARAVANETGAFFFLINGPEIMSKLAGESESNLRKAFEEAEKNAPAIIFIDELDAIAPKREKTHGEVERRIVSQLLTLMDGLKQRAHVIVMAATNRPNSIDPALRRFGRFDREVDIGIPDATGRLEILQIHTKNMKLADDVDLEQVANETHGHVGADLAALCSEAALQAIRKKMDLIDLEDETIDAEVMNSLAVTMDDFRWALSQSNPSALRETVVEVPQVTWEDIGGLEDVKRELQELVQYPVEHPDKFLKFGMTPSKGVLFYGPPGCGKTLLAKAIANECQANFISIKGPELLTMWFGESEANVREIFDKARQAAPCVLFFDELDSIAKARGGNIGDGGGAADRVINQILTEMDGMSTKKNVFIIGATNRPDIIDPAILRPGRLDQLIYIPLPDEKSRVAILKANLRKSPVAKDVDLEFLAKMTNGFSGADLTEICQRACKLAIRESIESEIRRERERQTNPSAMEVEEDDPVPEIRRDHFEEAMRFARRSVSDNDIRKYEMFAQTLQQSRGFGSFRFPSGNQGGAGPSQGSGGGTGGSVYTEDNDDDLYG
# test_protocol: p97 ATPase inhibitors, retest, confirmation, biochemical (AID 1517)
# conditions_used: recombinant p97 ATPase, Kinase-Glo ATP luminescence; at 8 µM; stronger effect = higher value
Some of the results follow.
The label depends only on inhibition: Y if it is at least 3%, N if it is smaller.

Below are worked cases with known answers.
{"compound": "Oc1c(C=Nc2cccc3nsnc23)ccc2ccccc12", "label_class": "Y"}
{"compound": "Cc1no[n+]([O-])c1COc1ccccc1/C=C1\\NC(=S)NC1=O", "label_class": "Y"}
{"compound": "Clc1ccc(C2=CSC3=Nc4cccc5cccc(c45)N23)cc1", "label_class": "N"}
{"compound": "Cc1ccc2c(c1)NCC(C(=O)NC1CCC(C)CC1)O2 (stereo unspecified)", "label_class": "Y"}
{"compound": "COc1ccccc1C1C(C#N)=C(N)Oc2c1c(-c1ccccc1)nn2-c1ccccc1 (stereo unspecified)", "label_class": "N"}

Moving on to the next compound.
(Q) Textbook exercise: given the entry `CCN1C(=O)/C(=C2/Sc3ccccc3N2CCCS(=O)(=O)O)SC1=S` , state whether its inhibition is greater than or equal to 3%.
(A) Y
